- measurement notes: yeast display, Sf9 membrane polyspecificity reagent, FACS + sequencing; frameworks hold sequencing errors
endpoint name: polyreactivity (PSR sort gate)

Solved entries:
>  <chain sequence>
QVQLVESGGGLVQAGGSLRLSCAASGSIFDVNAMGWYRQAPGKERELVAAISQRGTRTYYADSVKGRFTISRDNAKNTVYLQMNSLKAEDTAVYYCNRGGWRQYDSWGQGTQVTVSS

>  <polyreactivity (PSR sort gate)>
high polyreactivity

$$$$
>  <chain sequence>
QVQLVESGGGLVQAGGSLRLSCAASGSTFRDNAMGWYRQAPGTERELVAAISRRGGNTYYADSVKGRFTISRDNAKNTVYLQMNSLKPEDTAVYYCASEVKTSYSYTHDGYWGQGTKVTVSS

>  <polyreactivity (PSR sort gate)>
high polyreactivity

$$$$
>  <chain sequence>
QVQLVESGGGLVQAGGSLRLSCAASGSTFVVNTMGWYRQAPGKERELVATISDIGSSTDYADSVKGRFTISRDNAKNTVYLQMNSLKPEDTAVYYCAASIDDIITDDFYWVSWAYYYWGQGTQVTVSS

>  <polyreactivity (PSR sort gate)>
low polyreactivity

$$$$
>  <chain sequence>
QVQLVESGGGLVQAGGSLRFICAASGNTLNYYTMGWYRQAPGKERELVAAISSSGGSTYYADSVKGRFTISRDNAKNTVYLQMNSLQPEDTAVYYCNASVINEMNYWGQGTQVTVSS

>  <polyreactivity (PSR sort gate)>
low polyreactivity

$$$$

Now let's try a different one.
Q: Reported polyreactivity (PSR sort gate), sequence QVQLVESGGGLVQAGGSLRLSCAASGFIFGYYTMGWYRQAPGKERELVAAISSRGGSTYYADSVKGRFTISRDNAKNTVYLQMNSLKPEDTAVYYCAKRSTYTGSWWERGYWGQGTQVTVSS : ____
Result: high polyreactivity

Numbers sourced from the nanobody polyreactivity screen of Harvey et al. (2022).
